# tested on: T1, Cynomolgus OSM (cynomolgus, UniProt A0A2K5VPC6 26-221)
# T1 construct: also called Cyno OSM; cynomolgus macaque OSM
# T1 sequence: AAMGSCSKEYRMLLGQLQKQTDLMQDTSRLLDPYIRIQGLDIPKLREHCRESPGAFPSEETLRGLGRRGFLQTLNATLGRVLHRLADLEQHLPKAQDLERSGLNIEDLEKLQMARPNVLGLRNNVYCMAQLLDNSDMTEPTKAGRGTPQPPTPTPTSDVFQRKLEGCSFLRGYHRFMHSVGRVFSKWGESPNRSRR
# method summary: BIAcore kinetics, transfection supernatant
parameter measured: kon (M⁻¹ s⁻¹)

binder | parameter measured | result unit | observed measurement
Humanised 10G8 H0L1(IGKV4-1) (antibody, V domains shown, built from the stated exchange of CDRL2; residue limits derived by me; Human gamma 1/kappa constant regions; also called H0L1(huCDRL2)) VH: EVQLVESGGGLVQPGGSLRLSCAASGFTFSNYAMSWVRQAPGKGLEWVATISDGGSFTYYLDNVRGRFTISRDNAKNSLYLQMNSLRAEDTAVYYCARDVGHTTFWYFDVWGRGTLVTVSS VL: DIVMTQSPDSLAVSLGERATINCRASKSVSAAGYNFMHWYQQKPGQPPKVLIYWASTRESGVPDRFSGSGSGTDFTLTISSLQAEDVAVYYCLHSREFPFTFGGGTKVEIK | kon | M⁻¹ s⁻¹ | 150000
Humanised 10G8 H0 + L1 IGKV1_5 (antibody, V domains shown, built from the stated exchange of CDRL2; residue limits derived by me; Human gamma 1/kappa constant regions) VH: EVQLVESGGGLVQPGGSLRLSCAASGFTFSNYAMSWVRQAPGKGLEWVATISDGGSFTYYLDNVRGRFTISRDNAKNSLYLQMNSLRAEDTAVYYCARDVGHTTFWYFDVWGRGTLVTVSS VL: DIVMTQSPDSLAVSLGERATINCRASKSVSAAGYNFMHWYQQKPGQPPKVLIYKASSLESGVPDRFSGSGSGTDFTLTISSLQAEDVAVYYCLHSREFPFTFGGGTKVEIK | kon | M⁻¹ s⁻¹ | 67500
Humanised 10G8 H0 IGHV3_7 + L1 IGKV4_1 (antibody, V domains shown, built from the stated CDR exchanges; residue limits derived by me) VH: EVQLVESGGGLVQPGGSLRLSCAASGFTFSSYWMSWVRQAPGKGLEWVATISDGGSFTYYLDNVRGRFTISRDNAKNSLYLQMNSLRAEDTAVYYCARDVGHTTFWYFDVWGRGTLVTVSS VL: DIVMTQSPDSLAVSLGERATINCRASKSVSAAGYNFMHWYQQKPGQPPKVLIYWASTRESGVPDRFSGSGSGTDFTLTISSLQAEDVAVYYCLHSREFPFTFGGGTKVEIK | kon | M⁻¹ s⁻¹ | 50700
